# target: T1, human CD47 (full length) expressed on cells (human, UniProt Q08722 19-323)
# T1 construct: whole, on cells; also called human CD47/CHO cells; CHO/CD47 cells
# T1 sequence (Q08722 19-323): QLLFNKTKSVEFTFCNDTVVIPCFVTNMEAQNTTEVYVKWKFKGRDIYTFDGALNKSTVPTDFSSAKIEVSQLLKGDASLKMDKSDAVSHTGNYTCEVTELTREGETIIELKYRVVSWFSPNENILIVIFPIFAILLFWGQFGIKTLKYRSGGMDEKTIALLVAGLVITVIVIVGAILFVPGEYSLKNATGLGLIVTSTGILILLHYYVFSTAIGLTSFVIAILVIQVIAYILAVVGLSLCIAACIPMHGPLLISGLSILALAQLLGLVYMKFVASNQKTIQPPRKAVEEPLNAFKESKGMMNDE
# protocol-description: FACS ligand blocking on CD47-CHO cells; blocked ligand FITC human SIRPa huFc at 5 ug/ml
IC50 strictly under 4 µg/mL means criterion met; at 4 µg/mL or over means criterion not met.

Before answering, review these 3 worked examples.
- binder: "D36S4 mouse/human chimeric anti-human CD47 antibody (antibody, V domains shown, also called chimeric D36S4 antibody; D36S4 H/L) VH: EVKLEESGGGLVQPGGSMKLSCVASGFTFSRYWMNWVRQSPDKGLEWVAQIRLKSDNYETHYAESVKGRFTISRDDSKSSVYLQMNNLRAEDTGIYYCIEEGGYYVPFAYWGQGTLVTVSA VL: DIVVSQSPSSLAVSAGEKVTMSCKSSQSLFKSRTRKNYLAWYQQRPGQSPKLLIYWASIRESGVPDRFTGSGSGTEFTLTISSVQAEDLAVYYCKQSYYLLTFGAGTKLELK"
  label-value: "criterion met"
- binder: "HuD36S4 H3/L1 humanized anti-CD47 antibody (antibody, V domains shown) VH: EVQLVESGGGLVQPGGSLRLSCAASGFTFSRYWMNWVRQAPGKGLEWVAQIRLKSDNYETHYAESVKGRFTISRDDSKSSLYLQMNSLKTEDTAVYYCIEEGGYYVPFAYWGQGTLVTVSS VL: DIVMTQSPDSLAVSLGERATINCKSSQSLFKSRTRKNYLAWYQQKPGQPPKLLIYWASIRESGVPDRFSGSGSGTDFTLTISSLQAEDVAVYYCKQSYYLLTFGGGTKVEIK"
  label-value: "criterion not met"
- binder: "HuD36S4 H2/L1 humanized anti-CD47 antibody (antibody, V domains shown) VH: EVQLVESGGGLVQPGGSLRLSCAASGFTFSRYWMNWVRQAPGKGLEWVGQIRLKSDNYETHYAESVKGRFTISRDDSKNSLYLQMNSLKTEDTAVYYCIEEGGYYVPFAYWGQGTLVTVSS VL: DIVMTQSPDSLAVSLGERATINCKSSQSLFKSRTRKNYLAWYQQKPGQPPKLLIYWASIRESGVPDRFSGSGSGTDFTLTISSLQAEDVAVYYCKQSYYLLTFGGGTKVEIK"
  label-value: "criterion met"

Just wondering, is IC50 of HuD36S4 H1/L1 humanized anti-CD47 antibody (antibody, V domains shown) VH: EVQLVESGGGLVQPGGSLRLSCAASGFTFSRYWMNWVRQAPGKGLEWVGQIRLKSDNYETHYAESVKGRFTISRDDSKNSLYLQMNSLKTEDTAVYYCAREGGYYVPFAYWGQGTLVTVSS VL: DIVMTQSPDSLAVSLGERATINCKSSQSLFKSRTRKNYLAWYQQKPGQPPKLLIYWASIRESGVPDRFSGSGSGTDFTLTISSLQAEDVAVYYCKQSYYLLTFGGGTKVEIK below 4 µg/mL?
criterion not met

# TODO verify IC50 < 4 µg/mL strictly for this binder: HuD36S4 H1/L2 humanized anti-CD47 antibody (antibody, V domains shown) VH: EVQLVESGGGLVQPGGSLRLSCAASGFTFSRYWMNWVRQAPGKGLEWVGQIRLKSDNYETHYAESVKGRFTISRDDSKNSLYLQMNSLKTEDTAVYYCAREGGYYVPFAYWGQGTLVTVSS VL: DIVMTQTPLSLPVTPGEPASISCKSSQSLFKSRTRKNYLAWYLQKPGQSPQLLIYWASIRESGVPDRFSGSGSGTDFTLKISRVEAEDVGVYYCKQSYYLLTFGGGTKVEIK
criterion not met

Strictly below 4 µg/mL: is that where IC50 of HuD36S4 H2/L2 humanized anti-CD47 antibody (antibody, V domains shown) VH: EVQLVESGGGLVQPGGSLRLSCAASGFTFSRYWMNWVRQAPGKGLEWVGQIRLKSDNYETHYAESVKGRFTISRDDSKNSLYLQMNSLKTEDTAVYYCIEEGGYYVPFAYWGQGTLVTVSS VL: DIVMTQTPLSLPVTPGEPASISCKSSQSLFKSRTRKNYLAWYLQKPGQSPQLLIYWASIRESGVPDRFSGSGSGTDFTLKISRVEAEDVGVYYCKQSYYLLTFGGGTKVEIK sits?
criterion met
